The following compounds are listed with their measured normalized growth values.
- ASSAY DETAILS: chemical genetic growth profiling, strain panel (AID 1159580);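 also: tested at 20 µM; growth read once vehicle control cultures reached saturation at 30 °C; 1 = growth at the plate median or of vehicle wells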
- EXPERIMENTAL CONDITIONS: S. cerevisiae deletion strains, growth OD, locus YKL009W, strain mrt4, stronger effect = lower value
The whole screen tested about 5,500 compounds, of which about 2,000 (36%) were called active. About 18% were inconclusive and are not listed. The list shows a part of the results.
RECORDED ENDPOINT: normalized growth

compound=COc1ccccc1-c1cc(=O)c2cccc(OC)c2o1 number=0.978
compound=O=C(O)c1cc(=O)c2c(OCC(O)COc3cccc4oc(C(=O)O)cc(=O)c34)cccc2o1 number=1.01
compound="CCCN(CCC)C(=O)C(CCC(=O)O)NC(=O)c1ccccc1 (stereo not given)" number=1.02
compound=O=C(O)CCC(=O)c1ccc(-c2ccccc2)cc1 number=0.799
compound=CCOP(=S)(OCC)Oc1ccc2c(C)c(Cl)c(=O)oc2c1 number=0.952

* * *

- ASSAY DETAILS: chemical genetic growth profiling, strain panel (AID 1159580)
- EXPERIMENTAL CONDITIONS: S. cerevisiae deletion strains, growth OD, locus YOR144C, strain elg1, stronger effect = lower value
Hit rate of the full screen: of about 5,500 compounds, about 2,000 (36%) were called active. About 18% were inconclusive and are not listed. The list shows a part of the results.
# 1 = normalized growth below 1 (exclusive); 0 = normalized growth at/above 1

molecule=C=CCc1cc(OC)c2c(c1OC)OCO2 assigned_class=1
molecule=CCn1cc(C(=O)O)c(=O)c2ccc(C)nc21 assigned_class=1
molecule=COc1cc(O)cc(/C=C/c2ccccc2)c1 assigned_class=1
molecule="CC1=CC(=O)CC(C)(C)C1(O)/C=C/C(C)=C\\C(=O)O (stereo not given)" assigned_class=1
molecule=COc1ccccc1N1CCNCC1 assigned_class=0

* * *

- ASSAY DETAILS: chemical genetic growth profiling, strain panel (AID 1159580)
- EXPERIMENTAL CONDITIONS: S. cerevisiae deletion strains, growth OD, locus YER155C, strain BEM2 (second series)
Out of some 5,500 compounds screened, about 2,000 (36%) were called active. About 18% were inconclusive and are not listed. Cut-off read from the data, not from the text of the source: active = normalized growth mostly below about 0.91 (no sharp cut-off); inconclusive = no clear call, values can overlap the other calls; inactive = mostly above about 0.92. The list shows a part of the results.
Outcomes: active, inactive

molecule=COc1ccc(-c2cc(C(F)F)nn2-c2ccc(S(N)(=O)=O)cc2)cc1F assigned_class=inactive
molecule=COc1ccc(/C=C/c2cc(O)cc(O)c2)cc1 assigned_class=inactive
molecule=O=C1N=C(O)CN1/N=C\c1ccc(-c2ccc([N+](=O)[O-])cc2)o1 assigned_class=inactive
molecule="CC(COc1ccccc1)N(CCCl)Cc1ccccc1 (configuration not stated)" assigned_class=inactive
molecule=O=C1OCCN1/N=C\c1ccc([N+](=O)[O-])o1 assigned_class=active
molecule=O=C(O)CCC(=O)c1ccc(-c2ccccc2)cc1 assigned_class=inactive
molecule="CC1(C)C2CC(=O)O[C@@]3(C)C4=CC(=O)O[C@@H](c5ccoc5)[C@]4(C)CCC3[C@@]2(C)C=C[C@H]1O (some centres not stated)" assigned_class=inactive
molecule=Oc1ccc(/C=C/c2cc(O)cc(O)c2)cc1 assigned_class=inactive
molecule=O=C1CN(/N=C\c2ccc([N+](=O)[O-])o2)C(=O)N1 assigned_class=active
molecule=O=C(/C=C/c1ccc(O)c(O)c1)O[C@@H]1C[C@](O)(C(=O)O)C[C@@H](O)[C@H]1O assigned_class=inactive
molecule="CC1=CC(=O)CC(C)(C)C1(O)/C=C/C(C)=C\\C(=O)O (configuration not stated)" assigned_class=inactive
molecule="c1ccc(-c2ccc(C(c3ccccc3)n3ccnc3)cc2)cc1 (configuration not stated)" assigned_class=active
molecule="C[C@]12CCC3c4ccc(OS(=O)(=O)O)cc4CCC3C1CCC2=O (some centres not stated)" assigned_class=inactive
molecule=COP(=S)(OC)Oc1ccc(SC)c(C)c1 assigned_class=inactive
molecule=CO[C@@H]1[C@@H](O[C@@H]2O[C@H](C)[C@@H](O[C@H]3C[C@@](C)(O)[C@H](O)[C@H](C)O3)[C@H](N(C)C)[C@H]2O)[C@@H](CC=O)C[C@@H](C)[C@@H](O[C@H]2CC[C@H](N(C)C)[C@@H](C)O2)/C=C/C=C/C[C@H](C)OC(=O)C[C@H]1O assigned_class=inactive
molecule="C#C[C@]1(O)CCC2C3CCc4cc(OC)ccc4C3CC[C@@]21C (some centres not stated)" assigned_class=inactive
molecule="CC1(C)CC2C1CCC1(C)OC2(C)CCC1O (configuration not stated)" assigned_class=inactive
molecule=NCCCCN=C(N)N assigned_class=inactive
molecule=CCCN(CCC)CCc1cccc2c1CC(=O)N2 assigned_class=inactive
molecule=C[C@H](COc1ccccc1)N[C@H](C)[C@H](O)c1ccc(O)cc1 assigned_class=inactive
molecule=NC(=O)N/N=C\c1ccc([N+](=O)[O-])o1 assigned_class=inactive
molecule="CCCNC(C)C(=O)Nc1ccccc1C (configuration not stated)" assigned_class=inactive

* * *

- ASSAY DETAILS: chemical genetic growth profiling, strain panel (AID 1159580);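 also: tested at 20 µM; growth read once vehicle control cultures reached saturation at 30 °C; 1 = growth at the plate median or of vehicle wells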
- EXPERIMENTAL CONDITIONS: S. cerevisiae deletion strains, growth OD, locus YEL003W, strain gim4
In all, about 5,500 compounds went through this assay and about 2,000 (36%) were called active. Inconclusive results (about 18%) are left out. No stated cut-off is given here; in the data, active means normalized growth mostly below about 0.91 (no sharp cut-off); inconclusive means no clear call, values can overlap the other calls; inactive means mostly above about 0.92. This is one part of the list.
Outcomes: T = active, F = inactive

compound="C[C@]12CCC3c4ccc(OS(=O)(=O)O)cc4CCC3C1CCC2=O (some centres undefined)" assigned_class=F
compound=CC1=C(/C=C/C(C)=C/C=C/C(C)=C\C(=O)O)C(C)(C)CCC1 assigned_class=F
compound=COC(=O)[C@H]1[C@H]2C[C@@H]3c4[nH]c5cc(OC)ccc5c4CCN3C[C@H]2C[C@@H](OC(=O)c2cc(OC)c(OC)c(OC)c2)[C@@H]1OC assigned_class=F
compound=C[C@@H]1C[C@@H]([C@H](O)CC2CC(=O)NC(=O)C2)C(=O)[C@@H](C)C1 assigned_class=T
compound="C#C[C@]1(O)CCC2C3CCc4cc(O)ccc4C3CC[C@@]21C (some centres undefined)" assigned_class=F
compound=O=c1cccc2n1C[C@H]1CNCC2C1 assigned_class=F
compound=O=C(O)CNCP(=O)(O)O assigned_class=F
compound="COc1cc2c(cc1O)CC1c3c(cc(O)c(OC)c3-2)CCN1C (centres undefined)" assigned_class=F
compound="CC(=O)O[C@H]1C[C@@H](OC(C)=O)C(C)(C)C2C[C@@H](OC(C)=O)[C@]3(C)C(CC[C@@]4(C)[C@H](c5ccoc5)C(=O)[C@H]5O[C@]543)[C@]21C (some centres undefined)" assigned_class=F

* * *

- ASSAY DETAILS: chemical genetic growth profiling, strain panel (AID 1159580);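 also: tested at 20 µM; growth read once vehicle control cultures reached saturation at 30 °C; 1 = growth at the plate median or of vehicle wells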
- EXPERIMENTAL CONDITIONS: S. cerevisiae deletion strains, growth OD, locus YNL233W, strain BNI4
About 2,000 (36%) of roughly 5,500 compounds were called active. Another 18% or so got no clear call; they are omitted. No stated cut-off is given here; in the data, active means normalized growth mostly below about 0.91 (no sharp cut-off); inconclusive means no clear call, values can overlap the other calls; inactive means mostly above about 0.92. The list shows a part of the results.
Outcomes: active, inactive

molecule="CCCCC(CC)CN=C(N)NC(N)=NCCCCCCN=C(N)NC(N)=NCC(CC)CCCC (stereo unspecified)" assigned_class=active
molecule=CCOP(=S)(OCC)Oc1ccc2c(C)c(Cl)c(=O)oc2c1 assigned_class=inactive
molecule="Nc1nc2c(c(=O)[nH]1)N(C=O)C(CNc1ccc(C(=O)N[C@@H](CCC(=O)O)C(=O)O)cc1)CN2 (stereo partly specified)" assigned_class=inactive
molecule=Nc1nc2ncc(CNc3ccc(C(=O)N[C@@H](CCC(=O)O)C(=O)O)cc3)nc2c(=O)[nH]1 assigned_class=inactive
molecule=CCOC(N)=O assigned_class=inactive
molecule=COS(C)(=O)=O assigned_class=inactive

* * *

The following compounds are listed with their measured normalized growth values.
- ASSAY DETAILS: chemical genetic growth profiling, strain panel (AID 1159580);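 also: tested at 20 µM; growth read once vehicle control cultures reached saturation at 30 °C; 1 = growth at the plate median or of vehicle wells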
- EXPERIMENTAL CONDITIONS: S. cerevisiae deletion strains, growth OD, locus YDR162C, strain NBP2, stronger effect = lower value
In all, about 5,500 compounds went through this assay and about 2,000 (36%) were called active. Roughly 18% stayed inconclusive and do not appear here. This is one part of the list.
RECORDED ENDPOINT: normalized growth

compound=COC(=O)[C@H]1[C@H]2C[C@@H]3c4[nH]c5cc(OC)ccc5c4CCN3C[C@H]2C[C@@H](OC(=O)c2cc(OC)c(OC)c(OC)c2)[C@@H]1OC number=0.991
compound=NCc1ccc(S(N)(=O)=O)cc1 number=1.01
compound=COc1cc(C(=O)O)c(O)c2c1OCO2 number=1.02
compound=COP(=S)(OC)Oc1ccc(SC)c(C)c1 number=1.01
compound=C=CCc1cc(OC)c2c(c1OC)OCO2 number=0.951
compound="CC1=CC(=O)CC(C)(C)C1(O)/C=C/C(C)=C\\C(=O)O (stereo not drawn)" number=0.979
compound=C[C@H](COc1ccccc1)N[C@H](C)[C@H](O)c1ccc(O)cc1 number=1
compound="Nc1c(Br)cc(Br)cc1CNC1CCC(O)CC1 (stereo not drawn)" number=1.01
compound=CN(Cc1cc(Br)cc(Br)c1N)C1CCCCC1 number=1.02
compound="CC1(C)C2CC(=O)O[C@@]3(C)C4=CC(=O)O[C@@H](c5ccoc5)[C@]4(C)CCC3[C@@]2(C)C=C[C@H]1O (stereo partly drawn)" number=0.998
compound=Nc1nccs1 number=0.996
compound=CS(=O)(=O)OCCCCOS(C)(=O)=O number=0.961
compound="OCC(S)CS (stereo not drawn)" number=0.966
